Please go through the items and note down their Maximum mean fluorescence intensity.
Target: T1, human CD19 on Raji cells (human, UniProt P15391 20-556)
T1 construct: whole, on cells
T1 sequence (looked up): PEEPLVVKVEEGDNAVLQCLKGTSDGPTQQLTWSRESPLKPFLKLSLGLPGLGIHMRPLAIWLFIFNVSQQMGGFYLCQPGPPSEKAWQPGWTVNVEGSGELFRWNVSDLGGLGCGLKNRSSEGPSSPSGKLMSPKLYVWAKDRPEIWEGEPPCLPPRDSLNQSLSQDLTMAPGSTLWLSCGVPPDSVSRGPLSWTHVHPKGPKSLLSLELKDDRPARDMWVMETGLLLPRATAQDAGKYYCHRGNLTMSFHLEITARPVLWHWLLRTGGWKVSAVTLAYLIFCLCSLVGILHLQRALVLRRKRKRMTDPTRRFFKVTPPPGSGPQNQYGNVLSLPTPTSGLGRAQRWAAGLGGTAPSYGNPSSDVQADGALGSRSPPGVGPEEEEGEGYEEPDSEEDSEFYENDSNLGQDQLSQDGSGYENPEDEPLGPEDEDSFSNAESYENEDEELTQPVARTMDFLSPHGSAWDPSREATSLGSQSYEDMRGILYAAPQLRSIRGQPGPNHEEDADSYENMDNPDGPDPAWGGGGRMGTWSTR
Experiment: FACS on Raji cells
Numbers only; they are read as MFI.

Could you tell me which Maximum mean fluorescence intensity is on file for F3.121.4-L3H2 (antibody, mouse IgG1, kappa, V domains shown, humanized antibody of F3.121.4, VL3+VH2, murine IgG1 constant regions) VH: EVQLVQSGAEVKKPGASVKVSCKASGYTFTNYWMHWVRQAPGQGLEWMGEIDPSDNYANYNQEFQGRVTITVDKSASTAYMELSSLRSEDTAVYYCARHDGYFGALDYWGQGTTVTVSS VL: EIVLTQSPDFQSVTPKEKVTITCSASSSISSNYLHWYQQKPDQSPKFLIYRTSNLASGVPSRFSGSGSGTDFTLTINSLEAEDAATYYCQQASSIPRMFTFGQGTKLEIKR ?
32200

Could you tell me which Maximum mean fluorescence intensity is on file for F3.121.4-L1H1 (antibody, mouse IgG1, kappa, V domains shown, humanized antibody of F3.121.4, VL1+VH1, murine IgG1 constant regions) VH: EVQLVQSGAEVKKPGASVKVSCKASGYTFTNYWMHWVRQAPGQRLEWMGEIDPSDNYANYNQEFQGRVTITVDKSASTAYMELSSLRSEDTAVYYCARHDGYFGALDYWGQGTTVTVSS VL: EIVLTQSPATLSLSPGERATLSCSASSSISSNYLHWYQQKPGQAPRFLIYRTSNLASGIPARFSGSGSGTDFTLTISSLEPEDFAVYYCQQASSIPRMFTFGQGTKLEIKR ?
30500

Could you tell me which Maximum mean fluorescence intensity is on file for F3.121.4-L2H2 (antibody, mouse IgG1, kappa, V domains shown, humanized antibody of F3.121.4, VL2+VH2, murine IgG1 constant regions) VH: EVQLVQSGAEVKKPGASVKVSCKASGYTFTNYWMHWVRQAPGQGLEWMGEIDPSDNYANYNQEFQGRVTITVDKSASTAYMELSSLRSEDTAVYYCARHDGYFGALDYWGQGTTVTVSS VL: EIVLTQSPDFQSVTPKEKVTITCSASSSISSNYLHWYQQKPDQSPKLLIKRTSNLASGVPSRFSGSGSGTDFTLTINSLEAEDAATYYCQQASSIPRMFTFGQGTKLEIKR ?
30100

Could you tell me which Maximum mean fluorescence intensity is on file for F3.121.4-L2H1 (antibody, mouse IgG1, kappa, V domains shown, humanized antibody of F3.121.4, VL2+VH1, murine IgG1 constant regions) VH: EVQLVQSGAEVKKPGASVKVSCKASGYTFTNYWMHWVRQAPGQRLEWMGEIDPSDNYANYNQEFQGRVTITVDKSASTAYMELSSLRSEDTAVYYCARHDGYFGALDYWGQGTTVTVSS VL: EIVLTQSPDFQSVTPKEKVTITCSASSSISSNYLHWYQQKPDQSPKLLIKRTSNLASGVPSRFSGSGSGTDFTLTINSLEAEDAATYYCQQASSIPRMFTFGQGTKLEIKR ?
29100

Could you tell me which Maximum mean fluorescence intensity is on file for F3.121.4-L1H2 (antibody, mouse IgG1, kappa, V domains shown, humanized antibody of F3.121.4, VL1+VH2, murine IgG1 constant regions) VH: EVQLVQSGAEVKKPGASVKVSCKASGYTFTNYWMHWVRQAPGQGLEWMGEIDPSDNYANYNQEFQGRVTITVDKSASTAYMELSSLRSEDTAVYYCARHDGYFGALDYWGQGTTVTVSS VL: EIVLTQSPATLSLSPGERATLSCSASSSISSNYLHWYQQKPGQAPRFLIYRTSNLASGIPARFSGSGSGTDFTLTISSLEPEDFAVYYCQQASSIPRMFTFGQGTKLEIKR ?
31700

Could you tell me which Maximum mean fluorescence intensity is on file for F3.121.4 (antibody, human IgG1, V domains shown, human-murine chimeric antibody, human IgG1 constant; also called chimeric antibody F3.121.4) VH: QVQLQQPGAELVVPGTSVKLSCKASGYTFTNYWMHWVKQRPGQGLEWIGEIDPSDNYANYNQEFQGKATLTVDKSSSTAYMQLSSLTSDDSAVYYCARHDGYFGALDYWGQGTSVTVSS VL: EIVLTQSPTTMAASPGEKITITCSASSSISSNYLHWYQQKPGFSPKFLIYRTSNLASGVPARFSGSGSGTSYSLTIGTMEAEDVATYYCQQASSIPRMFTFGSGTKLEIK ?
32900

Could you tell me which Maximum mean fluorescence intensity is on file for F3.121.4-L3H1 (antibody, mouse IgG1, kappa, V domains shown, humanized antibody of F3.121.4, VL3+VH1, murine IgG1 constant regions) VH: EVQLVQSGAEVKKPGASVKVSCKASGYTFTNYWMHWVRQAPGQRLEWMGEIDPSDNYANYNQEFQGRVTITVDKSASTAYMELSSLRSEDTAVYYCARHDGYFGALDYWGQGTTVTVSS VL: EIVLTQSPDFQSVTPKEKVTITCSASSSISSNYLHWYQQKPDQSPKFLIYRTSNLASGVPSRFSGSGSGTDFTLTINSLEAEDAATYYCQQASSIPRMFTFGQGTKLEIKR ?
32000
